Source listed as paper PMC4402028.

# Format: in vivo, human
# CONDITION_INFO: both, human, plasma, oral, Cmax, eluxadoline 100 mg plus cyclosporine 600 mg; arithmetic mean (CV); N = 30
QUANTITY: Cmax (ng/mL)
Give the value, in units of ng/mL, as a plain number.

q: Tell me Cmax reported for COc1ccc(CN(C(=O)[C@@H](N)Cc2c(C)cc(C(N)=O)cc2C)[C@@H](C)c2ncc(-c3ccccc3)[nH]2)cc1C(=O)O
a: 20.9

====

# Format: in vivo, human
# CONDITION_INFO: both, human, plasma, oral, Cmax, eluxadoline 100 mg plus probenecid 500 mg; arithmetic mean (CV); N = 29
QUANTITY: Cmax (ng/mL)
Give the value, in units of ng/mL, as a plain number.

q: Tell me Cmax reported for COc1ccc(CN(C(=O)[C@@H](N)Cc2c(C)cc(C(N)=O)cc2C)[C@@H](C)c2ncc(-c3ccccc3)[nH]2)cc1C(=O)O
a: 3.6

====

# Format: in vivo, human
# CONDITION_INFO: both, human, plasma, oral, AUC(0–inf), Geometric LS Means, Treatment C (+ probenecid 500 mg); all profiles with estimable elimination rates (N 20)
QUANTITY: AUC(0-inf) (ng·h/mL)
Give the value, in units of ng·h/mL, as a plain number.

q: Tell me AUC(0-inf) reported for COc1ccc(CN(C(=O)[C@@H](N)Cc2c(C)cc(C(N)=O)cc2C)[C@@H](C)c2ncc(-c3ccccc3)[nH]2)cc1C(=O)O
a: 21.8

====

# EXPERIMENTAL_PROTOCOL: Semiphysiological integrated PK/ADME model
# Parameters: species or system human
# CONDITION_INFO: human, plasma, oral, 200 mg, net tubular secretion clearance CLTS; without inhibitor; estimated
QUANTITY: clearance

q: Tell me clearance reported for COc1ccc(CN(C(=O)[C@@H](N)Cc2c(C)cc(C(N)=O)cc2C)[C@@H](C)c2ncc(-c3ccccc3)[nH]2)cc1C(=O)O
a: 459 mL/min

====

# Type: in vivo, human
# CONDITION_INFO: both, human, plasma, oral, t1/2, eluxadoline 100 mg plus probenecid 500 mg; arithmetic mean (CV); n = 20
QUANTITY: half-life (min)
Give the value, in units of min, as a plain number.

q: Tell me half-life reported for COc1ccc(CN(C(=O)[C@@H](N)Cc2c(C)cc(C(N)=O)cc2C)[C@@H](C)c2ncc(-c3ccccc3)[nH]2)cc1C(=O)O
a: 306

====

# Format: in vivo, human
# CONDITION_INFO: both, human, plasma, oral, Vz/F, eluxadoline 100 mg plus probenecid 500 mg; arithmetic mean (CV); n = 20
QUANTITY: Vd/F (L)
Give the value, in units of L, as a plain number.

q: Tell me Vd/F reported for COc1ccc(CN(C(=O)[C@@H](N)Cc2c(C)cc(C(N)=O)cc2C)[C@@H](C)c2ncc(-c3ccccc3)[nH]2)cc1C(=O)O
a: 37100

====

# EXPERIMENTAL_PROTOCOL: Semiphysiological integrated PK/ADME model
# Design: species or system human
# CONDITION_INFO: human, plasma, po, 200 mg
QUANTITY: bioavailability (%)
Give the value, in units of %, as a plain number.

q: Tell me bioavailability reported for COc1ccc(CN(C(=O)[C@@H](N)Cc2c(C)cc(C(N)=O)cc2C)[C@@H](C)c2ncc(-c3ccccc3)[nH]2)cc1C(=O)O [eluxadoline]
a: 1.02
